# PROCEDURE DETAILS: Plasma stability, mouse plasma
# Assay type: in vitro ADME
# RECORDED CONDITIONS: 37° C., sampled up to 240 min, read-out: Plasmastability mouse pl. T1/2
Bridge positions count the residues as written; N and C are the ends. Square brackets hold non-standard residues; d marks the D form. Peptide text beside a SMILES is read from it. Abu(3S-NH2) = C[C@H](N)[C@H](N)C(=O)O; Hpla = O=C(O)[C@@H](O)Cc1ccc(O)cc1; Lac = C[C@H](O)C(=O)O
Answer each item with its documented half-life at 10 μM.
Hi, when you answer, please include the unit after the number. Thanks!

Any idea what its half-life at 10 μM is? The molecule is C[C@@H]1NC(=O)[C@H](Cc2c[nH]cn2)NC(=O)[C@H](Cc2ccc(O)cc2)NC(=O)[C@@H]2CCCN2C(=O)[C@H]2CCCN2C(=O)[C@H](CCCCN)NC(=O)[C@H](CCC(N)=O)NC(=O)[C@H](Cc2ccc(O)cc2)NC(=O)[C@@H]2CSSC[C@H](NC1=O)C(=O)N[C@H](CO)C(=O)O[C@@H](C)C(=O)N1CCC[C@@H]1C(=O)N[C@@H]([C@H](C)N)C(=O)N[C@@H](CCCNC(=N)N)C(=O)N[C@@H](Cc1ccc(O)cc1)C(=O)N2 [Example 7] (cyclo(YHAC[dS][Lac][dP][Abu(3S-NH2)]RYCYQK[dP]P); disulfide 4-11)
0.85 h

Look up half-life at 10 μM: C[C@@H]1NC(=O)[C@H](Cc2c[nH]cn2)NC(=O)[C@H](Cc2ccc(O)cc2)NC(=O)[C@@H]2CCCN2C(=O)[C@H]2CCCN2C(=O)[C@H](CCCCN)NC(=O)[C@H](CCC(N)=O)NC(=O)[C@H](Cc2ccc(O)cc2)OC(=O)[C@@H]2CSSC[C@H](NC1=O)C(=O)N[C@@H](CO)C(=O)N[C@@H](C)C(=O)N1CCC[C@@H]1C(=O)N[C@@H]([C@H](C)N)C(=O)N[C@@H](CCCNC(=N)N)C(=O)N[C@@H](Cc1ccc(O)cc1)C(=O)N2 [Example 3] (cyclo(YHACSA[dP][Abu(3S-NH2)]RYC[Hpla]QK[dP]P); disulfide 4-11)
2.27 h

What half-life at 10 μM value was documented for this molecule, C[C@@H]1NC(=O)[C@H](CCCNC(=N)N)NC(=O)[C@@H]2CSSC[C@H](NC(=O)[C@H](Cc3ccc(O)cc3)NC(=O)[C@H](CCCNC(=N)N)NC(=O)[C@H]([C@H](C)N)NC(=O)[C@H]3CCCN3C1=O)C(=O)N[C@@H](Cc1ccc(O)cc1)C(=O)N[C@@H](CCC(N)=O)C(=O)N[C@@H](CCCCN)C(=O)N1CCC[C@@H]1C(=O)N1CCC[C@H]1C(=O)N[C@@H](Cc1ccc(O)cc1)C(=O)N[C@@H](Cc1c[nH]cn1)C(=O)O[C@@H](C)C(=O)N2 [Example 9] (cyclo(YH[Lac]CRA[dP][Abu(3S-NH2)]RYCYQK[dP]P); disulfide 4-11) ?
1.23 h

###

# PROCEDURE DETAILS: Plasma stability, mouse plasma
# Type: in vitro ADME
# RECORDED CONDITIONS: 37° C., sampled up to 240 min
Bridge positions count the residues as written; N and C are the ends. Square brackets hold non-standard residues; d marks the D form. Peptide text beside a SMILES is read from it. Abu(3S-NH2) = C[C@H](N)[C@H](N)C(=O)O; Hpla = O=C(O)[C@@H](O)Cc1ccc(O)cc1
Assign Plasmastability mouse pl. T1/2 to each entry below.

Which Plasmastability mouse pl. T1/2 reading was recorded for the compound C[C@@H]1NC(=O)[C@H](Cc2c[nH]cn2)NC(=O)[C@H](Cc2ccc(O)cc2)NC(=O)[C@@H]2CCCN2C(=O)[C@H]2CCCN2C(=O)[C@H](CCCCN)NC(=O)[C@H](CCC(N)=O)NC(=O)[C@H](Cc2ccc(O)cc2)NC(=O)[C@@H]2CSSC[C@H](NC1=O)C(=O)N[C@@H](CO)C(=O)N[C@@H](C)C(=O)N1CCC[C@@H]1C(=O)O[C@@H](CCN)C(=O)N[C@@H](CCCNC(=N)N)C(=O)N[C@@H](Cc1ccc(O)cc1)C(=O)N2 [Example 2] ?
> 4 h

Name the recorded Plasmastability mouse pl. T1/2 for C[C@@H]1NC(=O)[C@H](Cc2c[nH]cn2)NC(=O)[C@H](Cc2ccc(O)cc2)NC(=O)[C@@H]2CCCN2C(=O)[C@H]2CCCN2C(=O)[C@H](CCCCN)NC(=O)[C@H](Cc2ccc(O)cc2)OC(=O)[C@H](Cc2ccc(O)cc2)NC(=O)[C@@H]2CSSC[C@H](NC1=O)C(=O)N[C@@H](CO)C(=O)N[C@@H](C)C(=O)N1CCC[C@@H]1C(=O)N[C@@H]([C@H](C)N)C(=O)N[C@@H](CCCNC(=N)N)C(=O)N[C@@H](Cc1ccc(O)cc1)C(=O)N2 [Example 4] (cyclo(YHACSA[dP][Abu(3S-NH2)]RYCY[Hpla]K[dP]P); disulfide 4-11) .
> 4 h

Need Plasmastability mouse pl. T1/2, item C[C@@H]1NC(=O)[C@H](Cc2c[nH]cn2)NC(=O)[C@H](Cc2ccc(O)cc2)OC(=O)[C@@H]2CCCN2C(=O)[C@H]2CCCN2C(=O)[C@H](CCCCN)NC(=O)[C@H](CCC(N)=O)NC(=O)[C@H](Cc2ccc(O)cc2)NC(=O)[C@@H]2CSSC[C@H](NC1=O)C(=O)N[C@@H](CO)C(=O)N[C@@H](C)C(=O)N1CCC[C@@H]1C(=O)N[C@@H]([C@H](C)N)C(=O)N[C@@H](CCCNC(=N)N)C(=O)N[C@@H](Cc1ccc(O)cc1)C(=O)N2 [Example 5] (cyclo([Hpla]HACSA[dP][Abu(3S-NH2)]RYCYQK[dP]P); disulfide 4-11)
> 4 h

###

# PROCEDURE DETAILS: Plasma stability, mouse plasma
# Type: in vitro ADME
# RECORDED CONDITIONS: 37° C., sampled up to 240 min, read-out: Plasmastability mouse pl. T1/2
# Procedure: The stability of the depsipeptides in human and mouse plasma was determined by applying the following method: 315 μL/deep well of freshly thawed human plasma (Basler Blutspende-dienst) and mouse plasma (Harlan Sera-Lab, UK), respectively, were spiked with 35 μL/well of compound in PBS (100 μM, triplicate) and incubated at 37° C. […] The peak areas were determined and triplicate values are averaged. […] By using the TREND function of EXCEL (Microsoft Office 2003) T1/2 were determined.
Bridge positions count the residues as written; N and C are the ends. Square brackets hold non-standard residues; d marks the D form. Peptide text beside a SMILES is read from it. Abu(3S-NH2) = C[C@H](N)[C@H](N)C(=O)O; Lac = C[C@H](O)C(=O)O
OBSERVABLE: half-life at 10 μM (min)
Reply numerically in min, unit not repeated.

half-life at 10 μM for C[C@@H]1NC(=O)[C@H](Cc2c[nH]cn2)NC(=O)[C@H](Cc2ccc(O)cc2)NC(=O)[C@@H]2CCCN2C(=O)[C@H]2CCCN2C(=O)[C@H](CCCCN)NC(=O)[C@H](CCC(N)=O)NC(=O)[C@H](Cc2ccc(O)cc2)NC(=O)[C@@H]2CSSC[C@H](NC1=O)C(=O)N[C@@H](CO)C(=O)O[C@@H](C)C(=O)N1CCC[C@@H]1C(=O)N[C@@H]([C@H](C)N)C(=O)N[C@@H](CCCNC(=N)N)C(=O)N[C@@H](Cc1ccc(O)cc1)C(=O)N2 [Example 1] (cyclo(YHACS[Lac][dP][Abu(3S-NH2)]RYCYQK[dP]P); disulfide 4-11) ?
73

###

# PROCEDURE DETAILS: in vitro
# Type: cell-based
# RECORDED CONDITIONS: African green monkey
Bridge positions count the residues as written; N and C are the ends. Square brackets hold non-standard residues; d marks the D form. Peptide text beside a SMILES is read from it. Abu(3S-NH2) = C[C@H](N)[C@H](N)C(=O)O; Lac = C[C@H](O)C(=O)O
OBSERVABLE: GI50 at 48 h (µM)
Just the number please, in µM, no unit attached.

GET /values?readout=GI50 at 48 h&item= C[C@@H]1NC(=O)[C@H](Cc2c[nH]cn2)NC(=O)[C@H](Cc2ccc(O)cc2)NC(=O)[C@@H]2CCCN2C(=O)[C@H]2CCCN2C(=O)[C@H](CCCCN)NC(=O)[C@H](CCC(N)=O)NC(=O)[C@H](Cc2ccc(O)cc2)NC(=O)[C@@H]2CSSC[C@H](NC1=O)C(=O)N[C@@H](CO)C(=O)O[C@@H](C)C(=O)N1CCC[C@@H]1C(=O)N[C@@H]([C@H](C)N)C(=O)N[C@@H](CCCNC(=N)N)C(=O)N[C@@H](Cc1ccc(O)cc1)C(=O)N2 [Example 1] (cyclo(YHACS[Lac][dP][Abu(3S-NH2)]RYCYQK[dP]P); disulfide 4-11)
12
